assay: in vitro; details: rat, gh3-tre-luc cells, AC50 (uM) modified / 1000, Tox21_110001=Tox21_300994; viability, 1 nM T3 present, 24 h
readout.name: CC50 at 24 h

Provide one value: measured CC50 at 24 h of CCOC(=O)C(Cl)Cc1cc(-n2nc(C)n(C(F)F)c2=O)c(F)cc1Cl (stereo not shown)
> 90 µM

###

test: in vitro; details: rat, gh3-tre-luc cells, AC50 (uM) modified / 1000
readout.name: CC50 at 24 h

// solved cases for CC50 at 24 h follow
• CCOC(=O)CC(=O)OCC [Diethyl propanedioate] = > 90 µM
• O=C(Cn1ccnc1[N+](=O)[O-])NCc1ccccc1 [Benznidazole] = > 50 µM
• CCc1cnc(C(=O)O)c(C(=O)O)c1 [5-Ethyl-2,3-pyridinedicarboxylic acid] = > 100 µM
• NCCCNCCCN [Norspermidine] = 57.5 µM
• C=C(C)c1cccc(C(C)(C)N=C=O)c1 = > 90 µM
• CN1CCC(N(Cc2cccs2)c2ccccc2)CC1 [Thenalidine] = 27 µM
• CCCC(=O)O[C@]1(C(=O)COC(C)=O)CC[C@H]2[C@@H]3C[C@H](F)C4=CC(=O)C=C[C@]4(C)[C@@]3(F)[C@@H](O)C[C@@]21C [Difluprednate] = > 50 µM
• C=CC(=O)NCOCCCC [N-(Butoxymethyl)acrylamide] = > 100 µM
• Clc1nnc(Cl)c2ccccc12 [1,4-Dichlorophthalazine] = > 90 µM

Let us move to another entry and its CC50 at 24 h.
Provide one value: measured CC50 at 24 h of CC(=O)OCC(=O)[C@@]1(O)CC[C@H]2[C@@H]3CCC4=CC(=O)CC[C@]4(C)[C@H]3C(=O)C[C@@]21C [Cortisone acetate]
> 50 µM

###

test system: GH3-TRE-Luc cell line; details: read-out: AC50 (uM) modified / 1000; Tox21_110001=Tox21_201404; viability, 1 nM T3 present, 24 h
readout.name: CC50 (µM)
# value in µM; strip the unit string

Provide one value: measured CC50 of [H]/N=C(\N/C(=N/[H])NCCCCCCNC(=N)NC(=N)Nc1ccc(Cl)cc1)Nc1ccc(Cl)cc1
7.06

###

system: GH3-TRE-Luc cell line; conditions: read-out: AC50 (uM) modified / 1000; Tox21_110001=Tox21_112331; viability, 1 nM T3 present, 24 h
readout.name: CC50
Remember to put the unit after the number in your answer.

Provide one value: measured CC50 of C[C@]12CC[C@@H]3c4ccc(O)cc4CC[C@H]3[C@@H]1CC[C@@H]2OC(=O)CCC1CCCC1 [Estradiol cypionate]
43.4 µM

###

assay: in vitro; settings: rat, gh3-tre-luc cells, AC50 (uM) modified / 1000, Tox21_110001=Tox21_112851; viability, 1 nM T3 present, 24 h
readout.name: CC50 at 24 h

Provide one value: measured CC50 at 24 h of COc1ccc(OC)c(C[C@H](C)N)c1
> 100 µM

###

experiment: in vitro; conditions: rat, gh3-tre-luc cells, AC50 (uM) modified / 1000
readout.name: CC50 at 24 h

// solved cases for CC50 at 24 h follow
• CC(C)=CC1C(C(=O)OCc2coc(Cc3ccccc3)c2)C1(C)C (stereo not shown) = > 90 µM
• COc1c(C)c2c(c(O)c1C/C=C(\C)CCC(=O)OCCN1CCOCC1)C(=O)OC2 [Mycophenolate mofetil] = 1.07 µM
• S=C1SCN(Cc2ccccc2)CN1Cc1ccccc1 = 23.1 µM
• Oc1ccc(/C=C/c2cc(O)cc(O)c2)cc1 = 35 µM
• N=C(N)N [Guanidine carbonate] = > 50 µM
• CC1(C)C(C=C(Cl)Cl)[C@@H]1C(=O)O[C@@H](C#N)c1ccc(F)c(Oc2ccccc2)c1 (stereo partly shown) = > 90 µM
• CCCCCCCC/C=C\CCCCCCCC(=O)N(CCO)CCO = 43.9 µM
• CCOc1nc2cccc(C(=O)OC(C)OC(=O)OC3CCCCC3)c2n1Cc1ccc(-c2ccccc2-c2nnn[nH]2)cc1 (stereo not shown) = 31.1 µM
• C1CN2CCN1CC2 [1,4-Diazabicyclo[2.2.2]octane] = > 100 µM
• O=C=NCC1CCCC(CN=C=O)C1 (stereo not shown) = > 90 µM

Provide one value: measured CC50 at 24 h of COc1ccc(COC(C)=O)cc1 [4-Methoxybenzyl acetate]
> 80 µM

###

assay: in vitro; conditions: rat, gh3-tre-luc cells, AC50 (uM) modified / 1000, Tox21_110001=Tox21_200685; viability, 1 nM T3 present, 24 h
readout.name: CC50 at 24 h

Provide one value: measured CC50 at 24 h of O=C(Cc1ccccc1)OCc1ccccc1 [Benzyl phenylacetate]
> 90 µM

###

test: in vitro; conditions: rat, gh3-tre-luc cells, AC50 (uM) modified / 1000
Structures can show the parent of a compound that is named as a salt.
readout.name: CC50 at 24 h

// solved cases for CC50 at 24 h follow
* C/C=C/C=C/CO | > 90 µM
* Cc1cc(CC(=O)O)c(C)n1-c1ccc(Cl)cc1 | > 50 µM
* O=P(O)(O)Oc1ccccc1 [Phenyl dihydrogen phosphate] | > 90 µM
* Cc1ccc(C)c(C)c1 | > 90 µM

Provide one value: measured CC50 at 24 h of c1ccsc1
> 90 µM

Provide one value: measured CC50 at 24 h of CCCC(=O)OC(=O)CCC [Butanoic anhydride]
> 90 µM

Provide one value: measured CC50 at 24 h of CC(C)[N+](C)(CCC(C(N)=O)(c1ccccc1)c1ccccc1)C(C)C [Isopropamide]
> 20 µM

Provide one value: measured CC50 at 24 h of NNC(N)=O [Semicarbazide hydrochloride]
> 90 µM

###

assay: in vitro; conditions: rat, gh3-tre-luc cells, AC50 (uM) modified / 1000
Entries annotated with measured CC50 at 24 h

// solved cases for CC50 at 24 h follow
- COC(Cc1ccccc1)OC: > 90 µM
- Cc1ccc(C)c(S(=O)(=O)O)c1: > 80 µM
- C1COC1 [1,3-Propylene oxide]: > 90 µM
- CCCCC(CC)COC(=O)CS (stereo not drawn) [2-Ethylhexyl sulfanylacetate]: > 90 µM
- CCCc1nc(C(C)(C)O)c(C(=O)OCc2oc(=O)oc2C)n1Cc1ccc(-c2ccccc2-c2nnn[nH]2)cc1: > 50 µM
- O=[N+]([O-])c1cc(C2CCCCC2)c(O)c([N+](=O)[O-])c1: 8.98 µM

Provide one value: measured CC50 at 24 h of O=c1[nH]c(=O)n([C@H]2C[C@H](O)[C@@H](CO)O2)cc1F
> 50 µM

Provide one value: measured CC50 at 24 h of C=CC(=O)NC(C)(C)CS(=O)(=O)O
> 90 µM

Provide one value: measured CC50 at 24 h of Cc1c(C(=O)O)cccc1[N+](=O)[O-]
> 90 µM

###

test: in vitro; conditions: rat, gh3-tre-luc cells, AC50 (uM) modified / 1000
readout.name: CC50 at 24 h

// solved cases for CC50 at 24 h follow
• Cc1nc2ccccc2n1Cc1ccc(Cl)cc1 = > 50 µM
• CC(C)(C)CC(C)(C)c1ccc(O)cc1 = 35.1 µM
• C1=C\CC/C=C\CC/1 = > 100 µM
• CCCC1([C@H](O)C/C=C/[C@H]2[C@H](O)CC(=O)[C@@H]2CCCCCCC(=O)OC)CCC1 [(R)-Butaprost] = 32.9 µM
• CCCCN(CCC(=O)OCC)C(C)=O [Ethyl 3-(N-butylacetamido)propionate] = > 90 µM
• COc1ccc2cc1Oc1ccc(cc1)C[C@H]1c3c(cc4c(c3Oc3cc5c(cc3OC)CCN(C)[C@@H]5C2)OCO4)CCN1C = 12.3 µM
• CCCCC/C=C\CCC=O = > 90 µM
• CCOc1cc(C(C)(C)C)ccc1C1COC(c2c(F)cccc2F)=N1 (stereo not shown) = 17.5 µM
• O=C(O)Cc1cccc(-c2cc(CCCCCCc3ccc(O[C@H]4O[C@H](CO)[C@@H](O)[C@H](O)[C@@H]4O)c(-c4cccc(CC(=O)O)c4)c3)ccc2O[C@H]2O[C@H](CO)[C@@H](O)[C@H](O)[C@@H]2O)c1 = > 50 µM
• COC(=O)c1cc(Cl)ccc1[N+](=O)[O-] [Methyl 5-chloro-2-nitrobenzoate] = > 90 µM

Provide one value: measured CC50 at 24 h of O=C(O)[C@@H]1CSCN1
> 50 µM

Provide one value: measured CC50 at 24 h of CC(C)[C@H]1CC[C@H](C(=O)N[C@H](Cc2ccccc2)C(=O)O)CC1 [Nateglinide]
> 50 µM

Provide one value: measured CC50 at 24 h of Cc1ccc2oc(=O)ccc2c1
> 90 µM

Provide one value: measured CC50 at 24 h of CNC[C@H](O)c1ccc(O)c(O)c1 [Epinephrine bitartrate]
> 90 µM

Provide one value: measured CC50 at 24 h of CC(CC(=O)O)CC(C)(C)C (stereo not shown)
> 90 µM

Provide one value: measured CC50 at 24 h of CCCCCOC(C)=O [Pentyl acetate]
> 90 µM

Provide one value: measured CC50 at 24 h of O=C(CCCCCCCCCCCCC1CCCC1)Nc1ccc(S(=O)(=O)c2ccc(NC(=O)CCCCCCCCCCCCC3CCCC3)cc2)cc1
> 50 µM

Provide one value: measured CC50 at 24 h of C[C@H]1C[C@H]2[C@@H]3CCC4=CC(=O)C=C[C@]4(C)[C@@]3(F)[C@@H](O)C[C@]2(C)[C@@]1(O)C(=O)CCl
> 50 µM

Provide one value: measured CC50 at 24 h of ON=CC=NO
> 90 µM

Provide one value: measured CC50 at 24 h of O=[N+]([O-])c1ccc(F)c(Cl)c1
> 90 µM

These data points were gathered from paper PMC6792352.
